What kinase still bound, per cent of control was measured for each of the following?
- tested.on: HUNK (human)
- assay.explanation: KINOMEscan competition binding
- experimental.context: compound 10.0 µM
Numbers only, in %.

// known answers, use as guide
{"columns": ["smiles.code", "readout.value"],
 "data": [
  ["CC(C)n1nc(-c2cc3cc(O)ccc3[nH]2)c2c(N)ncnc21", 99],
  ["COc1ccc(-c2ccc3c(N4CCOCC4)nc(N4C[C@@H](C)O[C@@H](C)C4)nc3n2)cc1CO", 90],
  ["COC(=O)Nc1ccc(-c2nc(N3CCOCC3)c3cnn(C4CCN(C(=O)OC)CC4)c3n2)cc1", 95]
]}

Now consider a different compound.
(Q) Entry under review: CCC(=O)N1CCN(c2ccc(-n3c(=O)ccc4cnc5ccc(-c6cnc7ccccc7c6)cc5c43)cc2C(F)(F)F)CC1 . Reported kinase still bound, per cent of control?
(A) 91

---

- tested.on: UniProtKB Q13627
- experimental.context: compound 1.0 µM
Assignment: determine reported per cent of control for the given compounds.
Numbers only, in %.

Field: per cent of control. Fill in for each record below.
1. COC(=O)Nc1ccc(-c2nc(N3CCOCC3)c3cnn(C4CCN(C(=O)OC)CC4)c3n2)cc1
2. COc1ccc(-c2ccc3c(N4CCOCC4)nc(N4C[C@@H](C)O[C@@H](C)C4)nc3n2)cc1CO
3. CC(C)n1nc(-c2cc3cc(O)ccc3[nH]2)c2c(N)ncnc21
4. CCC(=O)N1CCN(c2ccc(-n3c(=O)ccc4cnc5ccc(-c6cnc7ccccc7c6)cc5c43)cc2C(F)(F)F)CC1

(A)
[111, 94, 84, 92]

---

Assign kinase still bound, per cent of control to each entry below.
- tested.on: TLK2 (human) (UniProt Q86UE8)
- Sequence (Q86UE8 whole entry, looked up): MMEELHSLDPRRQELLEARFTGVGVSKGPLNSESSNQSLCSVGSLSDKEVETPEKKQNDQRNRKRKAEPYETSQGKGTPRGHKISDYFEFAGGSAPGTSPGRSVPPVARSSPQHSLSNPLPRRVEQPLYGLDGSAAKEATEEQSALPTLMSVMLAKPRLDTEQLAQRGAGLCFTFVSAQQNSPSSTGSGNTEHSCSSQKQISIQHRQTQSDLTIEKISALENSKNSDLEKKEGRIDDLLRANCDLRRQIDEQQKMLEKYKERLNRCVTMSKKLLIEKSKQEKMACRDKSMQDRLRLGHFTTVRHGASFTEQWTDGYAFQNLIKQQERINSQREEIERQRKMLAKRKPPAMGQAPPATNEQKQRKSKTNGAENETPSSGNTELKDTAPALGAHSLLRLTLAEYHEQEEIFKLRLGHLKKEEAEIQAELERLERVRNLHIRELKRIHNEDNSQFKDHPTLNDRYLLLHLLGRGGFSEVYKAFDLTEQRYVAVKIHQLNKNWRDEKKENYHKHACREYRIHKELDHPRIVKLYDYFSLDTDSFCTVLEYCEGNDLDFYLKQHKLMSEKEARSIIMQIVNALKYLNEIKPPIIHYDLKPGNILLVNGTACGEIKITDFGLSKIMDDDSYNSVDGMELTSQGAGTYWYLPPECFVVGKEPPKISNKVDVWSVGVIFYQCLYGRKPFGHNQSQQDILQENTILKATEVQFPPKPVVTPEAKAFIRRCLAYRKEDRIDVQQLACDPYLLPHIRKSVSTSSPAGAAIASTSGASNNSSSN
- assay.explanation: KINOMEscan competition binding
- experimental.context: compound 10.0 µM
Numeric answer plus unit only.

{"columns": ["smiles.code", "tested.on", "kinase still bound, per cent of control"],
 "data": [
  ["CCC(=O)N1CCN(c2ccc(-n3c(=O)ccc4cnc5ccc(-c6cnc7ccccc7c6)cc5c43)cc2C(F)(F)F)CC1", "TLK2 (human) (UniProt Q86UE8)", "100%"],
  ["COc1ccc(-c2ccc3c(N4CCOCC4)nc(N4C[C@@H](C)O[C@@H](C)C4)nc3n2)cc1CO", "TLK2 (human) (UniProt Q86UE8)", "87%"],
  ["CC(C)n1nc(-c2cc3cc(O)ccc3[nH]2)c2c(N)ncnc21", "TLK2 (human) (UniProt Q86UE8)", "79%"]
]}

We now examine a further compound.
(Q) Lab note: need kinase still bound, per cent of control for COC(=O)Nc1ccc(-c2nc(N3CCOCC3)c3cnn(C4CCN(C(=O)OC)CC4)c3n2)cc1 on TLK2 (human) (UniProt Q86UE8), anyone have it?
(A) 96%

---

Assign kinase still bound, per cent of control to each entry below.
- tested.on: TESK1 (human)
- assay.explanation: KINOMEscan competition binding
- experimental.context: compound 10.0 µM
Numbers only, in %.

Example compounds with recorded kinase still bound, per cent of control:
{"columns": ["smiles.code", "readout.value"],
 "data": [
  ["COc1ccc(-c2ccc3c(N4CCOCC4)nc(N4C[C@@H](C)O[C@@H](C)C4)nc3n2)cc1CO", 98],
  ["COC(=O)Nc1ccc(-c2nc(N3CCOCC3)c3cnn(C4CCN(C(=O)OC)CC4)c3n2)cc1", 91],
  ["CCC(=O)N1CCN(c2ccc(-n3c(=O)ccc4cnc5ccc(-c6cnc7ccccc7c6)cc5c43)cc2C(F)(F)F)CC1", 58]
]}

(Q) Which value of kinase still bound, per cent of control has been reported for CC(C)n1nc(-c2cc3cc(O)ccc3[nH]2)c2c(N)ncnc21 in the records?
(A) 17
